Target: β2AR (Homo sapiens, UniProt P07550)
Sequence (P07550 whole entry): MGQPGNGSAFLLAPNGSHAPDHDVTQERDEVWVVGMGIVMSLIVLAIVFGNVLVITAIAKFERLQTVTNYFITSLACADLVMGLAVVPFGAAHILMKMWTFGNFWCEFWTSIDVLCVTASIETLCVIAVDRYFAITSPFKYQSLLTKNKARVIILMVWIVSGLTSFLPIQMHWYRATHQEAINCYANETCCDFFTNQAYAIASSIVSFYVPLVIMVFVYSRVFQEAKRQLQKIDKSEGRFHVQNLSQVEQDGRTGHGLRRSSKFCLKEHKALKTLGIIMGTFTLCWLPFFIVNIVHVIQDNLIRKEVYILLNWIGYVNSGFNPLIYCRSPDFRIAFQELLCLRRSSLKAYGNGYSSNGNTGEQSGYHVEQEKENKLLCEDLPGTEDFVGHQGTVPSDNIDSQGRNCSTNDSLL
Test: […] high throughput assay for β-arrestin recruitment to β2AR
Assay type: cell-based
Conditions: Table 3; PathHunter; ISO-promoted β-arrestin2 recruitment; scaffold drawing 254, R1/R3 substituents
pIC50: −log10 of the molar value.
Quantity measured: pIC50

| Molecule | pIC50 |
| --- | --- |
| Clc1cc(Cl)cc(Nc2nc(NC3CCCC3)c3ccccc3n2)c1 | 5.05 |

(I) CC1CCCC(Nc2nc(Nc3cc(Cl)cc(Cl)c3)nc3ccccc23)C1 (stereo not drawn)
(II) Clc1cc(Cl)cc(Nc2nc(NCc3ccccc3)c3ccccc3n2)c1
Select one: I or II . Criterion: greater recorded pIC50. Refer to your chosen item by its label in the answer.
I

* * *

Biological target: β2AR (Homo sapiens)
Experiment: GLOSENSOR cAMP production assay (bias = GloSensor IC50:PathHunter IC50)
Format: cell-based
Conditions: Table 2; GloSensor IC50:PathHunter IC50 ratio
Quantity measured: Arrestin fold bias

# count of solved cases: 7
| Molecule | Assay result |
| --- | --- |
| Fc1cc(F)cc(Nc2nc(NC3CCCCC3)c3ccccc3n2)c1 [m-difluorophenyl / N/A] | >200 |
| Clc1ccc(Nc2nc(NC3CCCCC3)c3ccccc3n2)cc1Cl [m,p-dichlorophenyl / N/A] | >100 |
| COc1ccc(Nc2nc(NC3CCCCC3)c3ccccc3n2)cc1OC [m,p-dimethoxyphenyl / N/A] | >7 |
| Clc1cccc(Nc2nc(NC3CCCCC3)c3ccccc3n2)c1 [m-chlorophenyl / N/A] | >10 |
| Fc1ccc(Nc2nc(NC3CCCCC3)c3ccccc3n2)cc1 [p-fluorophenyl / N/A] | >200 |
| Fc1ccc(Nc2nc(NC3CCCCC3)c3cc(C(F)(F)F)ccc3n2)cc1F [m,p-difluorophenyl / 6-trifluoromethyl] | >1000 |
| Fc1ccc(Nc2nc(NC3CCCCC3)c3cc(Br)ccc3n2)cc1F [m,p-difluorophenyl / 6-bromo] | >900 |

Turning now to a further molecule:
So, Clc1ccc(Nc2nc(NC3CCCCC3)c3ccccc3n2)cc1 [p-chlorophenyl / N/A] ? Its Arrestin fold bias was >100

* * *

Molecular target: β2AR (Homo sapiens, UniProt P07550)
Test: […] high throughput assay for β-arrestin recruitment to β2AR
Format: cell-based
Conditions: Table 2; PathHunter; ISO-promoted β-arrestin2 recruitment; scaffold drawing 253, R1/R2 substituents
pIC50: −log10 of the molar value.
Quantity measured: pIC50

# count of solved cases: 5
| Given smiles | Assay result |
| --- | --- |
| Fc1ccc(Nc2nc(NC3CCCCC3)c3cc(Cl)ccc3n2)cc1F | 6.92 |
| Clc1cccc(Nc2nc(NC3CCCCC3)c3ccccc3n2)c1 | 5.22 |
| Fc1ccc(Nc2nc(NC3CCCCC3)c3cc(Br)ccc3n2)cc1F | 7.52 |
| COc1ccc(Nc2nc(NC3CCCCC3)c3ccccc3n2)cc1OC | 4.85 |
| Cc1ccc2nc(Nc3ccc(F)c(F)c3)nc(NC3CCCCC3)c2c1 | 6.44 |

(1) Cc1ccc(CNc2nc(NC3CCCCC3)c3ccccc3n2)cc1
(2) c1ccc2c(NC3CCCCC3)nc(NC3CCCCC3)nc2c1
(3) Clc1ccc(Nc2nc(NC3CCCCC3)c3ccccc3n2)cc1
(4) Fc1ccc(Nc2nc(NC3CCCCC3)c3ccccc3n2)cc1
(5) Clc1cccc(CNc2nc(NC3CCCCC3)c3ccccc3n2)c1
Arrange items by their pIC50 values in increasing order. Provide the ranking by listing each label in its place in the requested order.
5, 1, 2, 3, 4

(I) c1ccc(Nc2nc(NC3CCCCC3)c3ccccc3n2)cc1
(II) Fc1cc(F)cc(Nc2nc(NC3CCCCC3)c3ccccc3n2)c1
Select one: I or II . Criterion: greater recorded pIC50. Refer to your chosen item by its label in the answer.
II
(II: 6.70, I: 5.52)
